System: Escherichia coli TOP10
Assay: shrunken log2 fold change of peptide-encoding DNA abundance (4.5 h post-induction vs induction); higher = less antimicrobial activity (less host growth inhibition)
Details: time post-induction: 4.5 h; library: site-saturation at positions 5, 18, 19, 20
The following sequences are listed with their measured shrunken log2 fold change values.
API note: the answer field is a bare number with no unit suffix.

{"columns": ["macromolecule-sequence", "tgt", "shrunken log2 fold change"],
 "data": [
  ["RRIRRRPPRLPRPRPRPEGGPRP", "Escherichia coli TOP10", 0.103],
  ["RRIRTRPPRLPRPRPRPVHYPRP", "Escherichia coli TOP10", 0.0226]
]}

Query :: shrunken log2 fold change lookup needed for "RRIRKRPPRLPRPRPRPMQMPRP" , thanks.
Result :: -0.00145

Query :: shrunken log2 fold change lookup needed for "RRIRSRPPRLPRPRPRPEAHPRP" , thanks.
Result :: 0.16

Query :: shrunken log2 fold change lookup needed for "RRIRNRPPRLPRPRPRPRPYPRP" , thanks.
Result :: -0.25

Query :: shrunken log2 fold change lookup needed for "RRIRNRPPRLPRPRPRPNWDPRP" , thanks.
Result :: -0.163

Query :: shrunken log2 fold change lookup needed for "RRIRKRPPRLPRPRPRPVAMPRP" , thanks.
Result :: 1.67

Query :: shrunken log2 fold change lookup needed for "RRIRVRPPRLPRPRPRPLNGPRP" , thanks.
Result :: 0.103

Query :: shrunken log2 fold change lookup needed for "RRIRGRPPRLPRPRPRPVHMPRP" , thanks.
Result :: -0.0938

Query :: shrunken log2 fold change lookup needed for "RRIRVRPPRLPRPRPRPFDNPRP" , thanks.
Result :: -0.359

----------
Test system: Escherichia coli TOP10;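 further: peptides expressed intracellularly from a pBAD plasmid library in pooled LB shake-flask culture, induced with 0.3% L-arabinose, DNA abundance read by NGS, three biological replicates, DESeq2 with apeglm shrinkage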
Test: shrunken log2 fold change of peptide-encoding DNA abundance (4.5 h post-induction vs induction); higher = less antimicrobial activity (less host growth inhibition)
Conditions: time post-induction: 4.5 h; library: site-saturation at positions 5, 18, 19, 20
The following sequences are listed with their measured shrunken log2 fold change values.

{"columns": ["macromolecule-sequence", "shrunken log2 fold change"],
 "data": [
  ["RRIRQRPPRLPRPRPRPLVMPRP", -0.107],
  ["RRIRGRPPRLPRPRPRPALGPRP", 1.11],
  ["RRIRERPPRLPRPRPRPKANPRP", 0.0174],
  ["RRIRIRPPRLPRPRPRPWIIPRP", -0.207],
  ["RRIRRRPPRLPRPRPRPHADPRP", 0.573]
]}

Query :: Give recorded shrunken log2 fold change with Escherichia coli TOP10 for the following sequence: "RRIRPRPPRLPRPRPRPFQPPRP"
Result :: -0.0843

Query :: Give recorded shrunken log2 fold change with Escherichia coli TOP10 for the following sequence: "RRIRIRPPRLPRPRPRPTMEPRP"
Result :: -0.523

Query :: Give recorded shrunken log2 fold change with Escherichia coli TOP10 for the following sequence: "RRIRFRPPRLPRPRPRPADAPRP"
Result :: 0.147

Query :: Give recorded shrunken log2 fold change with Escherichia coli TOP10 for the following sequence: "RRIRGRPPRLPRPRPRPMYPPRP"
Result :: 0.244

Query :: Give recorded shrunken log2 fold change with Escherichia coli TOP10 for the following sequence: "RRIRERPPRLPRPRPRPEWPPRP"
Result :: 0.102

Query :: Give recorded shrunken log2 fold change with Escherichia coli TOP10 for the following sequence: "RRIRCRPPRLPRPRPRPQKFPRP"
Result :: -0.638

Query :: Give recorded shrunken log2 fold change with Escherichia coli TOP10 for the following sequence: "RRIRFRPPRLPRPRPRPAHCPRP"
Result :: 0.0781
